B1: Caulobacter ParB omega fusion; a variant is named by its letters at X, in order, B8GW30 (parent)
chain: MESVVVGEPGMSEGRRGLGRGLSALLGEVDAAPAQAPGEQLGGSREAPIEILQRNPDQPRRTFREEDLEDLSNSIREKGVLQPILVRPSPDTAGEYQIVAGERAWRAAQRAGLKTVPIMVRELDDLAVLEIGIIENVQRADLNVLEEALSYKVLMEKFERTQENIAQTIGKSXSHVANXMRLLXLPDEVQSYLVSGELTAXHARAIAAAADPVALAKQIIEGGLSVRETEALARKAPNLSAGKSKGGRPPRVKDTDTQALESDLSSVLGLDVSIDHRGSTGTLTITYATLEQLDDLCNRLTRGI

Variants of: B1
test-details: one-hybrid fitness for binding parS DNA (scaled: cognate 1, non-cognate 0); higher = stronger binding
experimental-context: with parS DNA site
The full ranking holds about 81,000 sequences; the median of “one-hybrid fitness for binding parS DNA” is about -0.17, and the highest 2% start at about 0.51. The entries come from a sample that favours the highest values as a whole.
measurement-label: one-hybrid fitness for binding parS DNA
Enter the number alone.

Note down one-hybrid fitness for binding parS DNA recorded for RYFF
0.256

Note down one-hybrid fitness for binding parS DNA recorded for RYAT
0.899
